B1: TPR 5TU (parent)
chain: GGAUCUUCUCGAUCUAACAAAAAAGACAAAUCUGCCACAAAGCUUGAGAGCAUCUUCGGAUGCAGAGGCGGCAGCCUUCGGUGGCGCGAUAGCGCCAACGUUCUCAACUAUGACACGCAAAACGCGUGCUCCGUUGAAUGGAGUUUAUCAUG

# Variants of: B1
# Protocol: polymerase ribozyme fitness, log enrichment relative to wild type (log ratio); higher = more active; in vitro selection for triplet polymerase activity
Fewer inactive variants are shown than the library holds.
Classification field: enter YES for polymerase ribozyme fitness (log ratio) values not below -0.9, NO for values below it.

Inquiry: I'd appreciate it if you could say whether A16U A21G C32U G50C U151G has polymerase ribozyme fitness (log ratio) at least equal to -0.9.
Reply text: NO

Inquiry: I'd appreciate it if you could say whether A22U G92C C93U A119G has polymerase ribozyme fitness (log ratio) at least equal to -0.9.
Reply text: NO

Inquiry: I'd appreciate it if you could say whether C87U U104G has polymerase ribozyme fitness (log ratio) at least equal to -0.9.
Reply text: YES

Inquiry: I'd appreciate it if you could say whether G74A G92C has polymerase ribozyme fitness (log ratio) at least equal to -0.9.
Reply text: NO

Inquiry: I'd appreciate it if you could say whether C96U A121U U139A has polymerase ribozyme fitness (log ratio) at least equal to -0.9.
Reply text: NO

Inquiry: I'd appreciate it if you could say whether U15A G83U has polymerase ribozyme fitness (log ratio) at least equal to -0.9.
Reply text: YES

Inquiry: I'd appreciate it if you could say whether G88U U127C has polymerase ribozyme fitness (log ratio) at least equal to -0.9.
Reply text: NO

Inquiry: I'd appreciate it if you could say whether A22U G141C has polymerase ribozyme fitness (log ratio) at least equal to -0.9.
Reply text: YES

Inquiry: I'd appreciate it if you could say whether C35U C125A U134C has polymerase ribozyme fitness (log ratio) at least equal to -0.9.
Reply text: YES

Inquiry: I'd appreciate it if you could say whether A52G U56G G86A C95U A142C has polymerase ribozyme fitness (log ratio) at least equal to -0.9.
Reply text: NO

Inquiry: I'd appreciate it if you could say whether U45A C76U C125G has polymerase ribozyme fitness (log ratio) at least equal to -0.9.
Reply text: NO

Inquiry: I'd appreciate it if you could say whether A40U G92U A98C C103G A120C U134A has polymerase ribozyme fitness (log ratio) at least equal to -0.9.
Reply text: NO

Inquiry: I'd appreciate it if you could say whether C38A U82A G84U A120C has polymerase ribozyme fitness (log ratio) at least equal to -0.9.
Reply text: NO

Inquiry: I'd appreciate it if you could say whether A24U G59U C87U G128A G140U U151C has polymerase ribozyme fitness (log ratio) at least equal to -0.9.
Reply text: NO

Inquiry: I'd appreciate it if you could say whether A49G G58C has polymerase ribozyme fitness (log ratio) at least equal to -0.9.
Reply text: YES

Inquiry: I'd appreciate it if you could say whether C79U U134A has polymerase ribozyme fitness (log ratio) at least equal to -0.9.
Reply text: NO

Inquiry: I'd appreciate it if you could say whether G94C A150U has polymerase ribozyme fitness (log ratio) at least equal to -0.9.
Reply text: YES

Inquiry: I'd appreciate it if you could say whether A22C A28C A40G C43U U56G C85U has polymerase ribozyme fitness (log ratio) at least equal to -0.9.
Reply text: NO

Inquiry: I'd appreciate it if you could say whether A37U C51U A97C has polymerase ribozyme fitness (log ratio) at least equal to -0.9.
Reply text: NO

Inquiry: I'd appreciate it if you could say whether A52G A97U has polymerase ribozyme fitness (log ratio) at least equal to -0.9.
Reply text: YES

Inquiry: I'd appreciate it if you could say whether C10G U13G A16C U56A G92C C105A C114U has polymerase ribozyme fitness (log ratio) at least equal to -0.9.
Reply text: NO

Inquiry: I'd appreciate it if you could say whether G86U G100A C131U has polymerase ribozyme fitness (log ratio) at least equal to -0.9.
Reply text: NO

Inquiry: I'd appreciate it if you could say whether C18U A40G C57G C95U has polymerase ribozyme fitness (log ratio) at least equal to -0.9.
Reply text: NO

Inquiry: I'd appreciate it if you could say whether C14G G58A has polymerase ribozyme fitness (log ratio) at least equal to -0.9.
Reply text: NO

Inquiry: I'd appreciate it if you could say whether A91C U144C has polymerase ribozyme fitness (log ratio) at least equal to -0.9.
Reply text: NO

Inquiry: I'd appreciate it if you could say whether C57A A122C has polymerase ribozyme fitness (log ratio) at least equal to -0.9.
Reply text: YES

Inquiry: I'd appreciate it if you could say whether A17C C27U C38A C85U has polymerase ribozyme fitness (log ratio) at least equal to -0.9.
Reply text: YES

Inquiry: I'd appreciate it if you could say whether C57A G68C C85A U134A U146C has polymerase ribozyme fitness (log ratio) at least equal to -0.9.
Reply text: NO

Inquiry: I'd appreciate it if you could say whether C57G C76U G88A G92U has polymerase ribozyme fitness (log ratio) at least equal to -0.9.
Reply text: NO

Inquiry: I'd appreciate it if you could say whether C8U A49U A52G has polymerase ribozyme fitness (log ratio) at least equal to -0.9.
Reply text: NO

Inquiry: I'd appreciate it if you could say whether G59C G67A U78G C79A C87A G143A has polymerase ribozyme fitness (log ratio) at least equal to -0.9.
Reply text: NO

Inquiry: I'd appreciate it if you could say whether U101A A115U G141A has polymerase ribozyme fitness (log ratio) at least equal to -0.9.
Reply text: NO

Inquiry: I'd appreciate it if you could say whether C54U C95A has polymerase ribozyme fitness (log ratio) at least equal to -0.9.
Reply text: NO

Inquiry: I'd appreciate it if you could say whether C51G A60G has polymerase ribozyme fitness (log ratio) at least equal to -0.9.
Reply text: NO

Inquiry: I'd appreciate it if you could say whether A22C A24C U61G G88U has polymerase ribozyme fitness (log ratio) at least equal to -0.9.
Reply text: NO

Inquiry: I'd appreciate it if you could say whether A147C has polymerase ribozyme fitness (log ratio) at least equal to -0.9.
Reply text: YES

Inquiry: I'd appreciate it if you could say whether A17U C116U has polymerase ribozyme fitness (log ratio) at least equal to -0.9.
Reply text: YES

Inquiry: I'd appreciate it if you could say whether U4G A24C G84U G86U C108U A122G U151C has polymerase ribozyme fitness (log ratio) at least equal to -0.9.
Reply text: NO

Inquiry: I'd appreciate it if you could say whether U77A G94C A98U has polymerase ribozyme fitness (log ratio) at least equal to -0.9.
Reply text: NO

Inquiry: I'd appreciate it if you could say whether C32U G59A has polymerase ribozyme fitness (log ratio) at least equal to -0.9.
Reply text: NO

Inquiry: I'd appreciate it if you could say whether C27G A30G A39U C87A has polymerase ribozyme fitness (log ratio) at least equal to -0.9.
Reply text: NO

Inquiry: I'd appreciate it if you could say whether C54U U90C G94A C131U has polymerase ribozyme fitness (log ratio) at least equal to -0.9.
Reply text: NO

Inquiry: I'd appreciate it if you could say whether G58C A73G U101C C125G has polymerase ribozyme fitness (log ratio) at least equal to -0.9.
Reply text: NO

Inquiry: I'd appreciate it if you could say whether G59A A60C G126A has polymerase ribozyme fitness (log ratio) at least equal to -0.9.
Reply text: YES

Inquiry: I'd appreciate it if you could say whether C14A C76G C87A A119G A138C U148A has polymerase ribozyme fitness (log ratio) at least equal to -0.9.
Reply text: NO

Inquiry: I'd appreciate it if you could say whether C54A U55A has polymerase ribozyme fitness (log ratio) at least equal to -0.9.
Reply text: NO
